Ref: the nanobody polyreactivity screen of Harvey et al. (2022)

- procedure details: yeast display, Sf9 membrane polyspecificity reagent, FACS + sequencing; frameworks hold sequencing errors
endpoint label: polyreactivity (PSR sort gate)

sequence entry: QVQLVESGGGLVQAGGSLRLSCAASGSTFDAYAMGWYIQAPGKERELVAAITNGGSTNYADSVKGRFTISRDNAKNTVYLQMNSLQPEDTAVYYCNAQHRTVRGIFGRFNYWGQGTQVTVSS
result: low polyreactivity
//
sequence entry: QVQLVESGGGLVQAGGSLRLSCAASGFTFPGNAMGWYRHPPGKERELVAAISSTDRTTNADSVKGRFTISRDNAKNTGYLQMNSLKPEDTAVYYCYTATRRRPRGYWGQGTQVTVSS
result: high polyreactivity
//
sequence entry: QVQLVESGGGLVQAGGSLRLSCAASGRTFRYYAKGWYRPAPGTERELVADISSTGRTYYADSVKGRFTISRDNAKNTVYLQMNSLKPEDTAVYYCNADYFFEFDYWGQGTQVTVSS
result: low polyreactivity
//
sequence entry: QVQLVESCGGLVQAGGSLRLSCAASGFIFRSYAMGWYRKAHGKERELVAAISRSGGSTYYADSVKGRFTISRDNAKNTVYLQMNSLKPEDTAVYYCATDGGRSTARGFGHWGQGTQVTVSS
result: high polyreactivity
//
sequence entry: QVQLVESGGGLVQAGGSLRLSCAASGSTFYYYAMGWYRQAPGKERELVAAIDWSGESTYYADSVKGRFTISRDNAKNTVYLQMNSLKPEDTAVYYCAADLGYPWGYVLFYKQSFSYYYWGQGTQVTVSS
result: low polyreactivity

====

- procedure details: yeast display, Sf9 membrane polyspecificity reagent, FACS + sequencing; frameworks hold sequencing errors
endpoint label: polyreactivity (PSR sort gate)

sequence entry: QVQLIESGGGLVQAGGSLRLSCAASGSTGIYAMGWYRQAPGKERELVAAITRRAGSTYYADSVKGRFTISRDNAKNTVYLQMNSLKPEDTAVYYCAAKGLWWYGTYVSYEYWGKGTQVTVSS
result: low polyreactivity
--
sequence entry: QVQLQESGGGLVQAGGSLRLSCAASGYISHADEMGWYRKAPGKEHELVASISNGGSTNYADSVKGRFTISRDNAKNTVYLQMNSLKSEDTAVYYCAAWTGQVDIHYYWGMGTQVTVSS
result: low polyreactivity
--
sequence entry: QVQLVESGGGLVQAVGSLSLSCAASGLTLGSYAKGAYRQAPGKERELVAAISRRSGRTYYADSVKGLFTISRDNAKNTVYLQINSLKPEDTAGFYCNRGYTAQVYTEFDYWGQGTQVTVSS
result: low polyreactivity
--
sequence entry: KVQLVDSGGGLVQAGGSLRLSCAASGSTSKCYAMGWYRPEPGKERELVAAITKTGGRTYYADSVKGRFTISRDNAKNTVYLQMNSLKPEDTADYYCAVEYLRGFIVIYDYWGQGTQVTVTS
result: high polyreactivity
--
sequence entry: QVQLVESGGGLVQAGGSLRLSCAASGSIFDRNAMGWYRQAPGKERELVAAISRSSGNTYYADSVKGRFTISRDNAKNTVYLQMNSLKPEDTAVYYCNKVDYWGQGTQVTVSS
result: high polyreactivity

====

- procedure details: yeast display, Sf9 membrane polyspecificity reagent, FACS + sequencing; frameworks hold sequencing errors

sequence entry: QVQLVESGGGVVQAGGSLRLSCAASGLIFYLYAMGWYRQAPGKERELVAGITSGGGSTYYADSVKGRFTISRDNAQNTVYLQMNSLKPEDTAVDDCAARLVLYITVVYEDDYWGQGTQGTVSS
polyreactivity (PSR sort gate): low polyreactivity
//
sequence entry: QVQLVESGGGLVQAGGSLRLSCAASGRIFANYAMGWYRQAPGKERELVAAIYWSDDDTYYADSVKGRFTISRDNAKNTVYFQMNRLIPEDTAVYYCAADGRYGWYYGVYNGEDYWGQGTQVTVSS
polyreactivity (PSR sort gate): high polyreactivity
//
sequence entry: QVQLVESGGGLVQAGGSLRLSCAPSGRIFVLYTMGWYRQAPGKERELVAAIRGGGSTNYADSVKGRFTISRDNAKNTVYLQMNSLKPEDTAVSYCAARYYREYDYWGQGTQVTVSS
polyreactivity (PSR sort gate): high polyreactivity
//
sequence entry: QVQLVESGGGLVQAGGRLRLSCAASGFIFGSYAMGWYRQAPGKERELVAVISSSGGRTYYADSVKGRFTISRDNAKNTVYLQMNSLKPEDTAVYYCNAKSRLFPTYRIYDYWGQGTQVTVSS
polyreactivity (PSR sort gate): high polyreactivity
//
sequence entry: QVQLVESGGGLVQAGGSLRLSCAASGRIFYLNVMGWYRQAPGKERELVAAITRRDVTTYADSVKGRFTISRDNAKNTVYLQMNSLKPEDTAVYYCNAEYVPYYEYESWGQGTQVTVSS
polyreactivity (PSR sort gate): low polyreactivity
//
sequence entry: QVQHVESGGGLVQARGSLRLSCSASGVIFYNYAMGWSRQAPGKEREFVAAISGSGGSTYYADSVKGRFTISRDNAKNTVYLQMNSLKPEDTAVYYCAVRQRYGPARYDYWGQGTQVTVSS
polyreactivity (PSR sort gate): high polyreactivity
//
sequence entry: QVQLVESGGGLVQAGCSLRLSCAASGFIFYDYDMGWYRQAPGKERELVAAITYSGGSTYYADSVKGRFTISRDNAKNTVYFQMNSLKPEDTAVYYCAAVKSRYAEAVDYYYWGQGTQVTVSS
polyreactivity (PSR sort gate): low polyreactivity
//
sequence entry: QVQLVESGGGLVQAGGSLRLSCAASGRTFHYYAMGWYRQAPGKERELVAGITGGGSTYYADSVKGRFTISRDNAKNTVYLQMNSLKPEDTAVYYCNARPYWFGSYGYWGQGTQVTVSS
polyreactivity (PSR sort gate): low polyreactivity
//
sequence entry: QVQLVESCGGLVQPGGSLRLSCAASGSILKSYAMGWYRKAPGKERELVAAITYRDGSTYYADSVKGRFTISRDNSKNTVYLQMNSLKPEDTAVYYCAAEPSWWNVFYPGYNYWGQGTQVTVSS
polyreactivity (PSR sort gate): high polyreactivity
//
sequence entry: QVQLVESGGGLVQAGGSLRLSCAASGRTFPGYAMGWYRQAPGKERELVASITSRGGITNYADSVKGRFTISRDIAKNTVYLQMLCLKPEDTSVYYCAAVSFWTMDYWGQGTQVTVSS
polyreactivity (PSR sort gate): low polyreactivity
//
sequence entry: QVQLVESGGGLVQAGGSLRLSCAASGIIFGTNAMGWYRQAPGKERELVAGITSSGDSTYYADSVKGRFTISRDNAKNTVYLQMNSLKPEDTAVYYCARDIRTREFDSWGQGTQVTVSS
polyreactivity (PSR sort gate): low polyreactivity
//
sequence entry: QVQLVESGGGLVQAGGSLRLSCAASGLTFKYYAMGWYRQAPGKERELVAAITSTGGRTYYADSVKGRFTISRDNAKNTVYLQMNSLKPEDTAFYYCAAYYVGSSKYDSWGQGTQVTVSS
polyreactivity (PSR sort gate): low polyreactivity
//
sequence entry: QVQLVESGGGLVQAGGSLRLSCAASGITFWGYAMGWYRQAPGKEREFVARINWSGGRTYYAESVKGRFTISRDNAKNTVYLQMNSLKPEDTAVYYCAATSLIYGYRTYDYWGQGTQVTVSS
polyreactivity (PSR sort gate): high polyreactivity
//
sequence entry: QVQLVESGGCLVQAGGSLRLSCAASGSTFRWNSIGSYRQAPVKEREFVASITSGGSTNYADSVKGRYTISRDIAKNTVYLQMNSLKPYDTAVYYCNADVRRSSYYVWLYDYWGQGTQVTVSS
polyreactivity (PSR sort gate): low polyreactivity
//
sequence entry: QVQLVESGGGLVQAGGSLRLSCPASGLIFNSYAMGWYRQARGTERELVAAISRHGGITYYADSVKGRFTISRDHAKNTVYLQMNSLKPEDTAVYYCNADSSRRRYSSDYWGQGTQVTVSS
polyreactivity (PSR sort gate): high polyreactivity
//
sequence entry: QVQLVESGGGLVQAGGSLRLSCAASGGTFFTNAMGWYRHAPGKERELVAVITGSGGRTYYADSVKGRFTISRDNAMNTVYLQMNSLKPEDTAVYYCAARGYSWGQGTQVTLSS
polyreactivity (PSR sort gate): high polyreactivity
//
sequence entry: QVQLVESGGGLVQAGGSLRLSCAASGSTFAGNAIGWYRQAPGKERELVAAITSGTGTHYADSVKGRFTISRDNAKNSVYLQMNSLKPEDTAVYYCAAEVWSWAGIWGYEYWGQGTQVTVSS
polyreactivity (PSR sort gate): low polyreactivity
//
sequence entry: QVQRVESGGGLVQAGGRLRLSCAASGLIFAHDARGWYRQAPGKERELVAGINRSGGSTYYADSVKGRFTISRDNAKNTVYLQTNSLKPEDTAVYYCAARRAYPRPGYDYWGQGTQVTVSS
polyreactivity (PSR sort gate): high polyreactivity
//
sequence entry: QVQLVESGGGLVQAGGSLRISCAASGSIFYVYAMGLYRQAPGKERELVAAISRRGARTYYADSVKGRFTISRDNAKNTVYLQMNSLKPEDSAVYYCNADQYYTVGYSAEYEYWGQGTQVTVSS
polyreactivity (PSR sort gate): low polyreactivity
//
sequence entry: QVQIVESGGGLVQAGGSLRLSCAASVIIFSKYGMGWYRQAPGKERELVAAISSSGGTTYYADSVKGRFTISRDNAKNTVYLQMNSLKPEDTAVYYCAATGRRRTYSEYEYWGQGTQVTVSS
polyreactivity (PSR sort gate): high polyreactivity
//
sequence entry: QVQLVESGGGLVQAGGSLRLSCAASGRIFYPNVMGWYRQAPGKERELVAAISASGGRTYYADSVKGRFTISRDNAKNTVYLQMNSLKPEDTAVYYCAADTVPSTRSWDTRYWEYEYWGQGTQVTVSS
polyreactivity (PSR sort gate): low polyreactivity
